Data provenance is paper PMC7158045.

- Measured Target: ZmDRIK1 (DROUGHT RESPONSIVE INACTIVE KINASE 1), kinase domain (Zea mays)
- Construct: gene ZEAMMB73_Zm00001d028770; ZmDRIK1-KD R187-S514 (kinase domain)
- Assay Remarks: biochemical
- Condition Set: read-out: dTm B, sheet ZmDRIK1-R187-S514;; DSF, Boltzmann fit, 0.1% DMSO
Parameter: ΔTm at 10 µM (°C)
I only need the number, in °C, no unit after it.

Fill blank: measured ΔTm at 10 µM of the molecule CN1CCC(c2c(O)cc(O)c3c(=O)cc(-c4ccccc4Cl)oc23)C1CO (centres unmarked) [P276-00] is ____.
-0.748

Repeat with FC(F)c1nc2ccccc2n1-c1nc(N2CCOCC2)nc(N2CCOCC2)n1 [ZSTK474]
-1.02

Repeat with O=C(O)[C@]1(Cc2cccc(Nc3nccs3)n2)CC[C@@H](Oc2cccc(Cl)c2F)CC1 [MK-5108 (VX-689)]
-1.14

Repeat with CNC(=O)c1ccc(C)c(-n2c(C)cc(OCc3ccc(F)cc3F)c(Br)c2=O)c1 [PH-797804]
-0.839

Repeat with CS(=O)(=O)c1cccc(CNc2nc(Nc3ccc4c(c3)CCC(=O)N4)ncc2C(F)(F)F)c1 [PF-573228]
-0.638

Repeat with O=C1c2ccc(Nc3ccc(F)cc3F)cc2CCc2ccc(OC[C@H](O)CO)cc21 [Skepinone-L]
-0.803

Repeat with O=C(c1ccc(/C=C/c2n[nH]c3ccccc23)cc1)N1CCNCC1 [KW-2449]
-0.807

Repeat with Nc1ncnc2c1c(-c1cccc(OCc3ccccc3)c1)cn2[C@H]1C[C@@H](CN2CCC2)C1 [NVP-AEW541]
-0.841

Repeat with COc1ccc(S(=O)(=O)N(C(C)=O)c2ccccc2/C=C/c2cc[n+]([O-])cc2)cc1 [HMN-214]
-0.877

Repeat with CNC(=O)Nc1ccc(-c2nc(N3CC4CCC(C3)O4)c3cnn(C4CCC5(CC4)OCCO5)c3n2)cc1 [WYE-125132 (WYE-132)]
-0.649

Repeat with Cc1ccc2nc(NCCN)c3ncc(C)n3c2c1 [BMS-345541]
-0.926

Repeat with Cc1c(NC(=O)c2ccc(C(C)(C)C)cc2)cccc1-c1cn(C)c(=O)c(Nc2ccc(C(=O)N3CCOCC3)cc2)n1 [CGI1746]
-1.61

Repeat with C=CC(=O)Nc1cccc(Oc2nc(Nc3ccc(N4CCN(C)CC4)cc3)ncc2Cl)c1 [WZ3146]
-0.897

Repeat with CCCS(=O)(=O)Nc1ccc(F)c(C(=O)c2c[nH]c3ncc(-c4ccc(Cl)cc4)cc23)c1F [Vemurafenib (PLX4032)]
-21.5

Repeat with CN1CCN(c2cccc(Nc3nc4c(-c5ccc(S(C)(=O)=O)cc5)cccn4n3)c2)CC1 [CEP-33779]
-0.54

Repeat with Cc1cnc(NC(=O)Nc2cc(Br)c(C)cc2OC[C@@H]2CNCCO2)cn1 [LY2603618]
-0.608

Repeat with Cn1cc(-c2ccc3nnc(Sc4ccc5ncccc5c4)n3n2)cn1 [SGX-523]
-0.576

* * *

- Measured Target: ZmDRIK1 (DROUGHT RESPONSIVE INACTIVE KINASE 1), kinase domain (Zea mays, UniProt C0P4K9)
- Construct: gene ZEAMMB73_Zm00001d028770; ZmDRIK1-KD R187-S514 (kinase domain)
- Sequence (C0P4K9 187-514): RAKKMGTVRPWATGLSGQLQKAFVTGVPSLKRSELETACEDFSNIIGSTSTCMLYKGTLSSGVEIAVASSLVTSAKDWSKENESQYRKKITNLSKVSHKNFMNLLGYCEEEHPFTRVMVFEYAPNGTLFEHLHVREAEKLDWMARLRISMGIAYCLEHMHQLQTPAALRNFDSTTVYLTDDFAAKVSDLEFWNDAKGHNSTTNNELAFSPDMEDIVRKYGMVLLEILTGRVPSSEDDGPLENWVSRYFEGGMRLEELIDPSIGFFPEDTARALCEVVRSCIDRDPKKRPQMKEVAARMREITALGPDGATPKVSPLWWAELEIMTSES
- Assay Remarks: biochemical
- Condition Set: read-out: dTm B, sheet ZmDRIK1-R187-S514;; DSF, Boltzmann fit, 0.1% DMSO
Parameter: ΔTm at 10 µM (°C)
I only need the number, in °C, no unit after it.

Fill blank: measured ΔTm at 10 µM of the molecule Cc1cc2c(F)c(Oc3ncnn4cc(OC[C@@H](C)OC(=O)[C@H](C)N)c(C)c34)ccc2[nH]1 [Brivanib Alaninate (BMS-582664)] is ____.
-1.08

Repeat with C[C@@H]1CN(CC(=O)Nc2ccc3c(c2)Cc2cccc(-c4cc(=O)cc(N5CCOCC5)o4)c2S3)C[C@H](C)O1 [KU-60019]
-1.17

Repeat with O=C(NC1CCNCC1)c1n[nH]cc1NC(=O)c1c(Cl)cccc1Cl [AT7519]
-0.866

Repeat with N#C/C(=C(/N)Sc1ccc(N)cc1)c1ccccc1C(F)(F)F [SL-327]
-1.09

Repeat with O=C1NC(=O)/C(=C/c2ccc3nccc(-c4ccncc4)c3c2)S1 [GSK1059615]
-0.862

* * *

- Measured Target: ZmDRIK1 (DROUGHT RESPONSIVE INACTIVE KINASE 1), kinase domain (Zea mays, UniProt C0P4K9)
- Construct: gene ZEAMMB73_Zm00001d028770; ZmDRIK1-KD R187-S514 (kinase domain)
- Assay Remarks: biochemical
- Condition Set: read-out: dTm B, sheet ZmDRIK1-R187-S514;; DSF, Boltzmann fit, 0.1% DMSO
Structures can show the parent of a compound that is named as a salt.
Returns 1 if the recorded ΔTm at 10 µM is greater than or equal to -0.7 °C, and -1 otherwise.

State whether the measured ΔTm at 10 µM reaches -0.7 °C, counting equality as reaching it, for O=C(Nc1cccc(Cl)c1)Nc1ncc(CCNc2ncnc3ccsc23)s1 [SNS-314 Mesylate]
-1

Repeat with CCOC(=O)c1cnc2ccc(-c3cncc(NS(=O)(=O)c4ccccc4)c3)cn12
1

Repeat with CCOc1cc2ncc(C#N)c(Nc3ccc(F)c(Cl)c3)c2cc1NC(=O)/C=C/CN(C)C [Pelitinib (EKB-569)]
-1

Repeat with O=C(c1cccc(Cl)c1F)N1CCN(Cc2cccc(Nc3nccs3)n2)CC1
1

Repeat with Cc1cc(Nc2ncnc3ccc(-c4ccc(CNCCS(C)(=O)=O)o4)cc23)ccc1Oc1ccn2ncnc2c1
-1

Repeat with N#CC(C#N)=Cc1ccc(O)c(O)c1
-1

Repeat with COc1cc2ncc(-c3ccccc3)nc2cc1OC
-1

Repeat with CNc1nc(Nc2cnn([C@H]3CCN(C4COC4)C[C@@H]3F)c2Cl)ncc1C(F)(F)F
-1

Repeat with CC(=O)Nc1nc(C)c(-c2ccc(Cl)c(S(=O)(=O)NCCO)c2)s1
-1

Repeat with C#Cc1cccc(Nc2ncnc3cc(OCCOC)c(OCCOC)cc23)c1 [Erlotinib HCl (OSI-744)]
1

Repeat with CC[C@@H]1C(=O)N(C)c2cnc(Nc3ccc(C(=O)N[C@H]4CC[C@H](N5CCN(CC6CC6)CC5)CC4)cc3OC)nc2N1C(C)C
-1

Repeat with COc1cc2/c(=N/c3ccc(Br)cc3F)nc[nH]c2cc1OCC1CCN(C)CC1 [Vandetanib (ZD6474)]
-1

Repeat with COc1cc2ncnc(Nc3cccc(Cl)c3)c2cc1OC
1

Repeat with COc1cccc2cc(-c3nc([C@H]4CC[C@H](C(=O)O)CC4)n4ncnc(N)c34)[nH]c12
1

Repeat with Cc1cc(O)c2c(c1)C(=O)c1cccc(O)c1C2=O
1

* * *

- Measured Target: ZmDRIK1-K217-P492 (Zea mays, UniProt C0P4K9)
- Construct: kinase domain, K217-P492
- Sequence (C0P4K9 1-514): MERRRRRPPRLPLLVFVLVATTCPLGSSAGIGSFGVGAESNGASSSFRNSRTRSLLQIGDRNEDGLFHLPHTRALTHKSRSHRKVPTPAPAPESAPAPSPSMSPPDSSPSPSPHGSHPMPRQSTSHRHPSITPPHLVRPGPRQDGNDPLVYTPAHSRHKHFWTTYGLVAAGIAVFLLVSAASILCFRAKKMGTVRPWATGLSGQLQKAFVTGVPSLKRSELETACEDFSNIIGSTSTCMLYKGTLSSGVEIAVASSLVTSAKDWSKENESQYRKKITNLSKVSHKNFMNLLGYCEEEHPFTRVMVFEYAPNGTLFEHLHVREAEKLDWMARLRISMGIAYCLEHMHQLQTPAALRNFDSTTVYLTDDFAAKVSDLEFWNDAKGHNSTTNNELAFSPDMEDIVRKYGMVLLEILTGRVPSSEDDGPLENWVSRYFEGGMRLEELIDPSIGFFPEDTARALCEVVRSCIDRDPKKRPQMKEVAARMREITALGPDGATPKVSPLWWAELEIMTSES
- Assay Remarks: biochemical
- Condition Set: read-out: dTm B, sheet ZmDRIK1-K217-P492;; DSF, Boltzmann fit, 0.1% DMSO
Label scheme for ΔTm at 10 µM: L: < -1 °C; M: ≥ -1 °C and < -0.7 °C; H: ≥ -0.7 °C

Which band does O=C(NCc1cccc(O)c1)Nc1nc(-c2ccncc2)cs1 [RKI-1447] fall in?
H

Repeat with N#Cc1ccc2[nH]c(O)c(-c3ccc(CN4CCOCC4)cn3)c2c1 [AZD1080]
M

Repeat with CC(C)CCN1c2nc(Nc3cc(F)c(O)c(F)c3)ncc2N(C)C(=O)C1C (centres unmarked) [BI-D1870]
L

Repeat with CC(C)(C)c1cc(/C=C(\C#N)C(N)=S)cc(C(C)(C)C)c1O [Tyrphostin AG 879]
H

Repeat with CCc1cc(Nc2nccc(-c3c(-c4ccc(OC)c(C(=O)Nc5c(F)cccc5F)c4)nc4ccccn34)n2)c(OC)cc1N1CCC(N2CCN(S(C)(=O)=O)CC2)CC1 [GSK1904529A]
M

Repeat with Cc1cc(Nc2cc(N3CCN(C)CC3)nc(Sc3ccc(NC(=O)C4CC4)cc3)n2)n[nH]1 [VX-680 (Tozasertib)]
L

Repeat with CCS(=O)(=O)Nc1ccc2c(c1)/C(=C(/Nc1ccc(CN3CCCCC3)cc1)c1ccccc1)C(=O)N2 [Hesperadin]
H

Repeat with N#Cc1c(O)c2c(-c3ccc(-c4ccccc4O)cc3)csc2[nH]c1=O [A-769662]
L

Repeat with COc1ccc(Cl)cc1NC(=O)Nc1cc(C)nc2ccccc12 [PQ 401]
M

Repeat with CO[C@H]1C[C@@H]2CC[C@@H](C)[C@@](O)(O2)C(=O)C(=O)N2CCCC[C@H]2C(=O)O[C@H]([C@H](C)C[C@@H]2CC[C@@H](OC(=O)C(C)(CO)CO)[C@H](OC)C2)CC(=O)[C@H](C)/C=C(\C)[C@@H](O)[C@@H](OC)C(=O)[C@H](C)C[C@H](C)/C=C/C=C/C=C/1C [Temsirolimus (CCI-779)]
L

Repeat with O=C(NCCO)c1cccc(-c2cc(Nc3ccc(OC(F)(F)F)cc3)ncn2)c1 [GNF-5]
H

Repeat with C[C@@H](Oc1cc(-n2cnc3ccc(CN4CCN(C)CC4)cc32)sc1C(N)=O)c1ccccc1C(F)(F)F [GSK461364]
M

Repeat with O=C1NC(=O)/C(=C/c2cccc(C(F)(F)F)c2)S1 [SMI-4a]
L

Repeat with Oc1cc(O)cc(/C=C/c2ccc(O)c(O)c2)c1 [Piceatannol]
H

Repeat with COc1cccc(-c2cc(=O)c3ccccc3o2)c1N [PD98059]
L

Repeat with C#Cc1cccc(Nc2ncnc3cc(OC)c(OCCCCCCC(=O)NO)cc23)c1 [CUDC-101]
L

Repeat with CCCS(=O)(=O)Nc1ccc(F)c(C(=O)c2c[nH]c3ncc(Cl)cc23)c1F [PLX-4720]
H

Repeat with O=C(NCCCNc1nc(Nc2cccc(NC(=O)N3CCCC3)c2)ncc1I)c1cccs1 [BX-795]
L

Repeat with C#Cc1cccc(Nc2ncnc3cc(OCCOC)c(OCCO)cc23)c1 [OSI-420]
H

Repeat with COc1cc2c(Oc3ccc(NC(=O)C4(C(=O)Nc5ccc(F)cc5)CC4)cc3F)ccnc2cc1OCCCN1CCOCC1 [Foretinib (GSK1363089)]
L

Repeat with Cc1cc(Nc2ncc(Cl)c(Nc3ccccc3S(=O)(=O)C(C)C)n2)c(OC(C)C)cc1C1CCNCC1 [LDK378]
L

Repeat with COc1cc(F)c(F)c(Nc2ccc(I)cc2F)c1NS(=O)(=O)C1(C[C@H](O)CO)CC1 [Refametinib (RDEA119)]
M

Repeat with c1cncc(CN2CCC(n3ncc4c(N5CCOCC5)nc(-c5ccc6[nH]ccc6c5)nc43)CC2)c1 [WAY-600]
L

Repeat with NC1(c2ccc(-c3nc4ccn5c(=O)[nH]nc5c4cc3-c3ccccc3)cc2)CCC1 [MK-2206 2HCl]
H

Repeat with Cn1cnc(N)c2ncnc1-2 [3-Methyladenine]
H

Repeat with CCOC(=O)c1cnc2ccc(-c3cncc(NS(=O)(=O)c4ccccc4)c3)cn12 [HS-173]
H

Repeat with Cc1ccc(NC(=O)c2cccc(C(C)(C)C#N)c2)cc1Nc1ccc2ncn(C)c(=O)c2c1 [AZ 628]
M

Repeat with O=C(Cc1ccc(-c2ccc(OCCN3CCOCC3)cc2)cn1)NCc1ccccc1 [KX2-391]
H

Repeat with Nc1cccc(-c2cc3c(Oc4cccc(O)c4)ncnc3[nH]2)c1 [TWS119]
M
